experiment: NCI Yeast Anticancer Drug Screen. Data for the mec2-1 strain (AID 157); conditions: S. cerevisiae mec2-1 strain, at 50.0 µM, active compounds read high
This is part of a sample that, as a whole, favours compounds with a hit. Of some 79,000 tested, about 15% had one in any assay.
REPORTED_ENDPOINT: growth inhibition (%)

> print(dat)
                                   compound  quantity.unit  readout.number
1  O=C1OC2(c3ccccc31)c1cc(I)c(O)c(I)c1Oc1c2cc(I)c(O)c1I              %            99.3
2  OC(CN1CCC(c2ccccc2)CC1)c1ccc(Br)cc1 (stereo not drawn)              %            61.2
3  Nc1nnc2nc(CC(=O)c3ccccc3)/c(=C/C(=O)c3ccccc3)n12              %             9.4
4  CN(C)CC1CCC/C(=C\c2ccc(Cl)c(Cl)c2)C1=O (stereo not drawn)              %            81.8
5  COc1cccc2c1C(=O)c1c(O)c3c(c(O)c1C2=O)C[C@@](O)(C(=O)CO)C[C@@H]3OC1CC(N(C)C)C(O)C(C)O1 (stereo partly drawn)              %            91.8
6                  NC(=O)c1ccccc1OC(=O)NCCO              %            -1.7
7  O=C1C(=O)c2ccc(Br)cc2C(O)=C1C(c1ccccc1)c1ccccc1              %            30.5
8  CN(C)CC1CCCCCC(Br)C1=O (stereo not drawn)              %            70.2

Origin of values: PubChem BioAssay (NCI)
